test.protocol: in vivo
setup.conditions: NOD SCID, mouse, ip, 1 mg/kg, Plasma Concentration, individual mice
measurement.name: concentration at 0.167 h (ng/mL)
Numbers only, in ng/mL.

Name the recorded concentration at 0.167 h for CC[C@@]1(O)C(=O)OCc2c1cc1n(c2=O)Cc2c-1nc1cc3c(c4c1c2[C@@H](NC(=O)[C@@H](C)O)CC4)OCO3 [PBX-7016] .
158

* * *

test.protocol: in vivo
setup.conditions: NOD SCID, mouse, ip, 1 mg/kg, Plasma Concentration, Mean
measurement.name: concentration at 1 h (ng/mL)
Answers are plain numbers, in ng/mL.

Name the recorded concentration at 1 h for CC[C@@]1(O)C(=O)OCc2c1cc1n(c2=O)Cc2c-1nc1cc3c(c4c1c2[C@@H](NC(=O)[C@@H](C)O)CC4)OCO3 .
16.1
